Tested on: B16-F10
Experiment: Toxicity in mouse B16F10 cells up to 5 uM incubated in dark for 24 hrs by MTT assay
Assay type: cell-based
Conditions: b16-f10, 24 h
Parameter: Activity

COCCOCCOC(=O)CCCCCCCOC(=O)c1c(Cl)c(Cl)c(Cl)c(Cl)c1-c1c2cc(I)c(=O)c(I)c-2oc2c(I)c(O)c(I)cc12
Non-Toxic
O=C(CCCCCCCOC(=O)c1c(Cl)c(Cl)c(Cl)c(Cl)c1-c1c2cc(I)c(=O)c(I)c-2oc2c(I)c(O)c(I)cc12)Nc1cccc2cccnc12
Non-Toxic
O=C(CCCCCCCOC(=O)c1c(Cl)c(Cl)c(Cl)c(Cl)c1-c1c2cc(I)c(=O)c(I)c-2oc2c(I)c(O)c(I)cc12)Nc1cccc2ccccc12
Non-Toxic

###

Assay: Drug uptake in mouse B16F10 cells assessed as localization in lysosomes at 5 uM after 1.5 hrs by LysoTracker staining-based fluorescence assay
Format: ADME, subcellular, Lysosome
Conditions: b16-f10, 1.5 h
Parameter: Drug uptake

Sample answers from the record:
O=C(CCCCCCCOC(=O)c1c(Cl)c(Cl)c(Cl)c(Cl)c1-c1c2cc(I)c(=O)c(I)c-2oc2c(I)c(O)c(I)cc12)Nc1cccc2ccccc12
Active
COCCOCCOCCOCCOC(=O)CCCCCCCOC(=O)c1c(Cl)c(Cl)c(Cl)c(Cl)c1-c1c2cc(I)c(=O)c(I)c-2oc2c(I)c(O)c(I)cc12
Active
O=C([O-])c1c(Cl)c(Cl)c(Cl)c(Cl)c1-c1c2cc(I)c(=O)c(I)c-2oc2c(I)c([O-])c(I)cc12.[Na+].[Na+] [ROSE BENGAL SODIUM]
Active
O=C(CCCCCCCOC(=O)c1c(Cl)c(Cl)c(Cl)c(Cl)c1-c1c2cc(I)c(=O)c(I)c-2oc2c(I)c(O)c(I)cc12)Nc1cccc2cccnc12
Active

[in] Record request: Drug uptake value, item COCCOCCOC(=O)CCCCCCCOC(=O)c1c(Cl)c(Cl)c(Cl)c(Cl)c1-c1c2cc(I)c(=O)c(I)c-2oc2c(I)c(O)c(I)cc12
[out] Active

[in] // query Drug uptake value for entry O=C(O)CCCCCCCOC(=O)c1c(Cl)c(Cl)c(Cl)c(Cl)c1-c1c2cc(I)c(=O)c(I)c-2oc2c(I)c(O)c(I)cc12
[out] Active

###

Test system: HepG2
Assay: Toxicity in human HepG2 cells up to 5 uM incubated in dark for 24 hrs by MTT assay
Format: cell-based
Conditions: hepg2, 24 h
Parameter: Activity

As a guide, the following entries are already answered.
O=C([O-])c1c(Cl)c(Cl)c(Cl)c(Cl)c1-c1c2cc(I)c(=O)c(I)c-2oc2c(I)c([O-])c(I)cc12.[Na+].[Na+] [ROSE BENGAL SODIUM]
Non-Toxic
COCCOCCOC(=O)CCCCCCCOC(=O)c1c(Cl)c(Cl)c(Cl)c(Cl)c1-c1c2cc(I)c(=O)c(I)c-2oc2c(I)c(O)c(I)cc12
Non-Toxic
O=C(CCCCCCCOC(=O)c1c(Cl)c(Cl)c(Cl)c(Cl)c1-c1c2cc(I)c(=O)c(I)c-2oc2c(I)c(O)c(I)cc12)Nc1cccc2cccnc12
Non-Toxic
O=C(CCCCCCCOC(=O)c1c(Cl)c(Cl)c(Cl)c(Cl)c1-c1c2cc(I)c(=O)c(I)c-2oc2c(I)c(O)c(I)cc12)Nc1cccc2ccccc12
Non-Toxic
COCCOCCOCCOCCOC(=O)CCCCCCCOC(=O)c1c(Cl)c(Cl)c(Cl)c(Cl)c1-c1c2cc(I)c(=O)c(I)c-2oc2c(I)c(O)c(I)cc12
Non-Toxic

Continue with the compound presented below.
[in] Entry O=C(O)CCCCCCCOC(=O)c1c(Cl)c(Cl)c(Cl)c(Cl)c1-c1c2cc(I)c(=O)c(I)c-2oc2c(I)c(O)c(I)cc12 : reported Activity = ?
[out] Non-Toxic

Origin of the recorded values: ChEMBL document CHEMBL4251644
